target: DNA polymerase beta (Homo sapiens)
assay.procedure: qHTS Assay for Inhibitors of DNA Polymerase Beta
recorded.conditions: Pol beta primer extension/strand displacement, fluorescence kinetic; series mostly up to 114 µM
Among all 340,000 compounds or so, about 4,500 (1.3%) were called active. Not shown: some 5% with an inconclusive outcome. Calls follow the shape of the dose curve; as a rule, active = well fitted inhibition curve with a large enough effect; inconclusive = small, poorly fitted or top-dose-only effect, or another doubt; inactive = no such curve, though single readings can be large or run the other way. For the sample, actives were picked, then their nearest neighbours and some compounds at random.
Classes used: yes = active, no = inactive

INSERT INTO results (compound, category_label) VALUES
  ('O=C(Nc1cccc(Cl)c1)c1csnn1', 'no'),
  ('O=C(Nc1ccc(Oc2ccccc2)cc1)C1CCN(S(=O)(=O)c2ccc(Cl)cc2)CC1', 'no'),
  ('CCOc1ccccc1C(=O)NC1(C(F)(F)F)C(=O)Nc2c1c(=O)[nH]c(=O)n2-c1ccc(F)cc1 (stereo unspecified)', 'no'),
  ('CCOC(=O)c1ccc(NC(=O)CNC(=O)c2ccco2)cc1', 'yes'),
  ('CCN(CC)CCOC(=O)c1ccc(NC(=O)CNC(=O)c2ccccc2)cc1', 'no'),
  ('O=C(Nc1ccccc1)c1nnsc1S(=O)(=O)c1ccc(Cl)cc1', 'yes');
